# assayed-target: UniProt:P48736
# Sequence (P48736 whole entry, looked up): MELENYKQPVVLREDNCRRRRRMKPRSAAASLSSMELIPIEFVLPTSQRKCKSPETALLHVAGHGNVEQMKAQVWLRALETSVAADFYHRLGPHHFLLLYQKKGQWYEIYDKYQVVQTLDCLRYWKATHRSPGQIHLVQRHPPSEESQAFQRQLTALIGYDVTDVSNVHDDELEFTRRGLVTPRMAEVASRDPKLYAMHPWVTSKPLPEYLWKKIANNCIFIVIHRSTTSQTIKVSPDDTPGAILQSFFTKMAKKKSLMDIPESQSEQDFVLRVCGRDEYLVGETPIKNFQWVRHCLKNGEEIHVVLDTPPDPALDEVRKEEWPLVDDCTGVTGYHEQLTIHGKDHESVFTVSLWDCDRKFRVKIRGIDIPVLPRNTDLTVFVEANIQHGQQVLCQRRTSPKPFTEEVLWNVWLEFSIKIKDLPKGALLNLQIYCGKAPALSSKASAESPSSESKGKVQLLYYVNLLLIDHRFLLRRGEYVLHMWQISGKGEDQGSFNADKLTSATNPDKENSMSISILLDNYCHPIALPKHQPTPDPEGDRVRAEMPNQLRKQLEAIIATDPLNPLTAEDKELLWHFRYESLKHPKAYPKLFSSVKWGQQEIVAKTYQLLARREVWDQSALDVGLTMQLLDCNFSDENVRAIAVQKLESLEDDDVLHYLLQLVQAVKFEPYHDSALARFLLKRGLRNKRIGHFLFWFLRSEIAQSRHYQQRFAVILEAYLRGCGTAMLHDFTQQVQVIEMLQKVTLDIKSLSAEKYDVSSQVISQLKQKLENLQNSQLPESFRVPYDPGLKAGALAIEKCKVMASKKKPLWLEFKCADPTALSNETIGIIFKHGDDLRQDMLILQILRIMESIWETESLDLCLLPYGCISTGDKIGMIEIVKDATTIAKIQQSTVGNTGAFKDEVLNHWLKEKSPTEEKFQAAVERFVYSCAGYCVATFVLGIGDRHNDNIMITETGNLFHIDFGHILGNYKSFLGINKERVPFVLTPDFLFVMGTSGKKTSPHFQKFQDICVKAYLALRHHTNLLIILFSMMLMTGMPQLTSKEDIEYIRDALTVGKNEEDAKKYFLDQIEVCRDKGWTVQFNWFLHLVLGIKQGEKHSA
Parameter IC50: see the listing below.

>  <sample-smiles>
C[C@H](Nc1ccnn2ccnc12)c1cc2cccc(C(F)(F)F)c2c(=O)n1-c1cccc(F)c1

>  <IC50>
< 100 nM

$$$$
>  <sample-smiles>
C[C@H](Nc1ccnn2ccnc12)c1cc2cccc(Cl)c2c(=O)n1-c1ccccc1

>  <IC50>
< 100 nM

$$$$
>  <sample-smiles>
C[C@H](Nc1nc(Cl)nc2cccnc12)c1cc2cccc(-c3cnn(C)c3)c2c(=O)n1-c1cccc(F)c1

>  <IC50>
100 to 1000 nM

$$$$
>  <sample-smiles>
COc1cncc(-c2cccc3cc([C@H](C)Nc4ncnc5cccnc45)n(-c4ccccc4)c(=O)c23)c1

>  <IC50>
< 100 nM

$$$$
>  <sample-smiles>
C[C@H](Nc1ncc(C(F)(F)F)c(N)n1)c1cc2cccc(Cl)c2c(CCN2CCOCC2)n1

>  <IC50>
> 10000 nM

$$$$
>  <sample-smiles>
C[C@H](Nc1nc(N)nc2cccnc12)c1nc2cccc(-c3ccnnc3)c2c(=O)n1-c1ccccc1

>  <IC50>
< 100 nM

$$$$
>  <sample-smiles>
C[C@H](Nc1ncnc2ccnn12)c1cc2cccc(Cl)c2c(=O)n1-c1cccc(F)c1

>  <IC50>
100 to 1000 nM

$$$$
>  <sample-smiles>
C[C@H](Nc1ccnn2ccnc12)c1cc2cccc(-c3cnn(C)c3)c2c(=O)n1-c1ccccc1

>  <IC50>
< 100 nM

$$$$
>  <sample-smiles>
COc1ncc(-c2cccc3cc([C@H](C)Nc4nc(OC)nc5cccnc45)n(-c4ccccc4)c(=O)c23)cn1

>  <IC50>
> 10000 nM

$$$$
>  <sample-smiles>
CNc1nc(N[C@@H](C)c2cc3cccc(-c4cnc(C)nc4)c3c(=O)n2-c2ccccc2)c2ncccc2n1

>  <IC50>
100 to 1000 nM

$$$$
>  <sample-smiles>
C[C@H](Nc1nc(N)ncc1C#N)c1cc2cccc(C(F)(F)F)c2c(=O)n1-c1ccccc1

>  <IC50>
< 100 nM

$$$$
>  <sample-smiles>
C[C@H](Nc1ccnc2ccnn12)c1cc2cccc(C(F)(F)F)c2c(=O)n1-c1ccccc1

>  <IC50>
< 100 nM

$$$$
>  <sample-smiles>
Cc1nn(C)cc1-c1cccc2cc([C@H](C)Nc3ncnc4cccnc34)n(-c3ccccc3)c(=O)c12

>  <IC50>
< 100 nM

$$$$
>  <sample-smiles>
C[C@H](Nc1nc(N)ncc1C#N)c1cc2cccc(C(F)(F)F)c2c(=O)n1-c1cccc(F)c1

>  <IC50>
< 100 nM

$$$$
>  <sample-smiles>
C[C@H](Nc1ncnc2[nH]cnc12)c1cc2cccc(C(F)(F)F)c2c(=O)n1-c1cccc(F)c1

>  <IC50>
< 100 nM

$$$$

* * *

# assayed-target: UniProt O00329
# Sequence (O00329 whole entry, looked up): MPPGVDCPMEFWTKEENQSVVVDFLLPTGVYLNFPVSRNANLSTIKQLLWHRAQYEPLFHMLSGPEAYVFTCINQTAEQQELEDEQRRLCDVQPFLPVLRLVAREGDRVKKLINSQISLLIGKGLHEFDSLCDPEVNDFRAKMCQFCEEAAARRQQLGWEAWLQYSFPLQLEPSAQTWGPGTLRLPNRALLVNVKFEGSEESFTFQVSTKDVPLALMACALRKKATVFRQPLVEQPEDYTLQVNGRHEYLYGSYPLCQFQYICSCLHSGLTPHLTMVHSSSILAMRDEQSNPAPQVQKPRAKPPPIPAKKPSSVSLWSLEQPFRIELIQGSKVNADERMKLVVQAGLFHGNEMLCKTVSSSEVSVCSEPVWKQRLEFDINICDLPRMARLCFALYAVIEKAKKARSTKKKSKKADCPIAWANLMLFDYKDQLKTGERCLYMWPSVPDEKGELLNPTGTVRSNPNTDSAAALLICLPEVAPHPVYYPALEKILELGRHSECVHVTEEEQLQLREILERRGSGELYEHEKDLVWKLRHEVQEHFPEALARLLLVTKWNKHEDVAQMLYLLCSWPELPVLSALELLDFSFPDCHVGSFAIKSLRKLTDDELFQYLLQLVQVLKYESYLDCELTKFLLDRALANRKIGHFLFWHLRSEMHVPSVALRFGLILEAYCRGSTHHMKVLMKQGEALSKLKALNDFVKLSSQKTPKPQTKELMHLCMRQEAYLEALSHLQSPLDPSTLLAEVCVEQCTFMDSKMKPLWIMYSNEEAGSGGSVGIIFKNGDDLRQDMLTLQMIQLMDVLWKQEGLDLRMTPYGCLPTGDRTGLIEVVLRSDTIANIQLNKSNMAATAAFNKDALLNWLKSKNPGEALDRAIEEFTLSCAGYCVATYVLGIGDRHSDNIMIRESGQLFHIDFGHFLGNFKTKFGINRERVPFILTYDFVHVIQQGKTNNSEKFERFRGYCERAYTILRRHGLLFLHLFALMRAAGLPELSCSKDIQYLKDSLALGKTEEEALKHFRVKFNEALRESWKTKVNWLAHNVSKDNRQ
# assay-info: Assessment of PIK3CD Kinase Activity
The following compounds are listed with their measured IC50 values.

>  <compound>
C[C@H](Nc1ncnc2ccnn12)c1cc2cccc(C(F)(F)F)c2c(=O)n1-c1ccccc1

>  <assayed-target>
UniProt O00329

>  <IC50>
< 100 nM

$$$$
>  <compound>
C[C@H](Nc1ncnc2ccnn12)c1cc2cccc(Cl)c2c(=O)n1-c1ccccc1

>  <assayed-target>
UniProt O00329

>  <IC50>
< 100 nM

$$$$
>  <compound>
CCOC(=O)c1cnc(N[C@@H](C)c2cc3cccc(-c4ccnc(OC)c4)c3c(=O)n2-c2ccccc2)nc1N

>  <assayed-target>
UniProt O00329

>  <IC50>
> 10000 nM

$$$$
>  <compound>
Cc1nsc2cc(C(C)Nc3ncnc4cccnc34)n(-c3ccccc3)c(=O)c12 (configuration not stated)

>  <assayed-target>
UniProt O00329

>  <IC50>
100 to 1000 nM

$$$$
>  <compound>
C[C@H](Nc1nc(N)nc2cccnc12)c1cc2cccc(-c3cnn(C)c3)c2c(=O)n1-c1ccccc1

>  <assayed-target>
UniProt O00329

>  <IC50>
< 100 nM

$$$$
>  <compound>
C[C@H](Nc1cc(N)nc2ccnn12)c1cc2cccc(Cl)c2c(=O)n1-c1ccccc1

>  <assayed-target>
UniProt O00329

>  <IC50>
< 100 nM

$$$$
>  <compound>
C[C@H](Nc1ccnn2ccnc12)c1cc2cccc(Cl)c2c(=O)n1-c1cccc(F)c1

>  <assayed-target>
UniProt O00329

>  <IC50>
< 100 nM

$$$$
>  <compound>
C[C@H](Nc1ncnc2cccnc12)c1cc2cccc(-c3cnn(C)c3)c2c(=O)n1-c1ccccc1

>  <assayed-target>
UniProt O00329

>  <IC50>
< 100 nM

$$$$
>  <compound>
C[C@H](Nc1nc(Cl)ns1)c1cc2cccc(Cl)c2c(=O)n1-c1ccccc1

>  <assayed-target>
UniProt O00329

>  <IC50>
> 10000 nM

$$$$
>  <compound>
C[C@H](Nc1ncnc2cccnc12)c1cc2cccc(C(=O)O)c2c(=O)n1-c1ccccc1

>  <assayed-target>
UniProt O00329

>  <IC50>
> 10000 nM

$$$$
>  <compound>
C[C@H](Nc1ncnc2scnc12)c1cc2scc(C(F)(F)F)c2c(=O)n1-c1ccccc1

>  <assayed-target>
UniProt O00329

>  <IC50>
< 100 nM

$$$$
>  <compound>
Cc1ccnc2cc(C(C)Nc3ncnc4cccnc34)n(-c3ccccc3)c(=O)c12 (configuration not stated)

>  <assayed-target>
UniProt O00329

>  <IC50>
< 100 nM

$$$$
